These measurements were taken from the supplement of paper PMC12317010.

- Test protocol: collision cross section in nitrogen (drift tube, single-field); higher = larger gas-phase ion size;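 note: chemical standards at 10 µM analysed by drift tube IMS-QTOF MS in about 3.95 torr nitrogen, mean of duplicate injections differing ≤1%, mass error below 10 ppm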
- Condition parameters: ion type: [M+Na]; ion source: ESI; ion mode: Positive
Counter-ions that a name gives are not always drawn.
The following molecules are listed with their measured collision cross section in nitrogen values.
Measurement type: collision cross section in nitrogen (Å²)

Molecule | Measurement type | Measured
O=P1(N(CCCl)CCCl)NCCCO1 (stereo not given) [Cyclophosphamide] | collision cross section in nitrogen | 154.6
CSc1nnc(C(C)(C)C)c(=O)[nH]1 | collision cross section in nitrogen | 161.3
O=C(C1CCCCC1)N1CC(=O)N2CCc3ccccc3C2C1 (stereo not given) | collision cross section in nitrogen | 185.4
CCOC(=O)CCN(SN(C)C(=O)Oc1cccc2c1OC(C)(C)C2)C(C)C | collision cross section in nitrogen | 201.5
COC(=O)Nc1nc2cc(S(=O)c3ccccc3)ccc2[nH]1 (stereo not given) | collision cross section in nitrogen | 191.4
C=CC(=O)NC(C)(C)CC(C)=O [Diacetone acrylamide] | collision cross section in nitrogen | 145.2
O=C(NC(=O)c1c(F)cccc1F)Nc1ccc(Cl)cc1 | collision cross section in nitrogen | 177.4
COCC(=O)N(c1c(C)cccc1C)N1CCOC1=O | collision cross section in nitrogen | 167.1
c1ccc2[nH]c(-c3cscn3)nc2c1 | collision cross section in nitrogen | 152.4
CCOC(=O)OC1=C(c2cc(C)ccc2C)C(=O)N[C@]12CC[C@@H](OC)CC2 | collision cross section in nitrogen | 202.3
O=[N+]([O-])/N=C1\NCCN1Cc1ccc(Cl)nc1 | collision cross section in nitrogen | 159.5
Cc1cccc(OP(=O)(Oc2cccc(C)c2)Oc2cccc(C)c2)c1 | collision cross section in nitrogen | 198.9
CCN(CCC#N)c1ccc(N=Nc2ccc([N+](=O)[O-])cc2)cc1 | collision cross section in nitrogen | 189.8
CNC(=N[N+](=O)[O-])NCC1CCOC1 (stereo not given) [1-Methyl-2-nitro-3-((tetrahydrofuran-3-yl)methyl)guanidine] | collision cross section in nitrogen | 150.6
CC(CCc1ccccc1)NCC(O)c1ccc(O)c(C(N)=O)c1 (stereo not given) [Labetalol hydrochloride] | collision cross section in nitrogen | 176.8
c1cc(N(CC2CO2)CC2CO2)ccc1Cc1ccc(N(CC2CO2)CC2CO2)cc1 (stereo not given) | collision cross section in nitrogen | 199.7
NCCNCCNCCNCCN | collision cross section in nitrogen | 148.5
C=C[C@](C)(O)CC[C@@H]1[C@@]2(C)CCCC(C)(C)[C@@H]2CC[C@@]1(C)O | collision cross section in nitrogen | 189.2
O=C1CC2(CCCC2)CC(=O)N1CCCCN1CCN(c2ncccn2)CC1 | collision cross section in nitrogen | 201.6
Cc1cccc(Nc2cc(Cl)nc(SCC(=O)O)n2)c1C [[4-Chloro-6-(2,3-xylidino)-2-pyrimidinylthio]acetic acid] | collision cross section in nitrogen | 178.2
COCCOCCOCCOC | collision cross section in nitrogen | 138.1
c1ccc([C@H]2CN3CCSC3=N2)cc1 [Levamisole hydrochloride] | collision cross section in nitrogen | 155.8
O=S(=O)(c1ccc(OCc2ccccc2)cc1)c1ccccc1O | collision cross section in nitrogen | 201.9
Fc1ccc([C@@]2(Cn3cncn3)O[C@@H]2c2ccccc2Cl)cc1 | collision cross section in nitrogen | 191.3
C=C(C)C(=O)OCCCCCCCCCCOC(=O)C(=C)C [1,10-Decanediol dimethacrylate] | collision cross section in nitrogen | 184.9
